- Tested on: Saccharomyces cerevisiae
- Method summary: protein stability index of tFT-peptide fusion (C-terminal peptide) (PSI (0-1 scale)); higher = more stable (slower turnover);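 also: PSI is a weighted mean of sequencing reads over stability bins, variants kept only with over 10 reads, mCherry proximal and sfGFP distal, peptide attached via GGGS linker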
- Test settings: genetic background: wild type; temperature: 37 C
Assign protein stability index to each entry below.
// return just the number, without any unit appended

(Q) Supply measured protein stability index of INGINHKIIKIV in your reply.
(A) 0.0909

(Q) Supply measured protein stability index of CCSGWSVRLLCV in your reply.
(A) 0.375

(Q) Supply measured protein stability index of LIPFPGFFILLT in your reply.
(A) 0.315

(Q) Supply measured protein stability index of PPPLPPPSPSRP in your reply.
(A) 0.683

(Q) Supply measured protein stability index of FLVFPLLIQFFL in your reply.
(A) 0.323

(Q) Supply measured protein stability index of VFGVWVVVGCVG in your reply.
(A) 0.197

(Q) Supply measured protein stability index of LISRGNRALFCI in your reply.
(A) 0.482

(Q) Supply measured protein stability index of YTLWFLAWGLVF in your reply.
(A) 0.36

(Q) Supply measured protein stability index of RMCEILGIRHLI in your reply.
(A) 0.303

(Q) Supply measured protein stability index of ELTYVYRTALIA in your reply.
(A) 0.0995

(Q) Supply measured protein stability index of VFGCHHLEVSVC in your reply.
(A) 0.34

(Q) Supply measured protein stability index of DVCGVRYVLFVL in your reply.
(A) 0.597

(Q) Supply measured protein stability index of ILFCVRIGLFWT in your reply.
(A) 0.179

(Q) Supply measured protein stability index of CHSICLVILEFI in your reply.
(A) 0.384

(Q) Supply measured protein stability index of SPTRTCTAIRTP in your reply.
(A) 0.671

(Q) Supply measured protein stability index of PGHICVPVLGTA in your reply.
(A) 0.517

(Q) Supply measured protein stability index of FCALWLCFRLMV in your reply.
(A) 0.265

(Q) Supply measured protein stability index of LSRLWVVGWVVA in your reply.
(A) 0.399

(Q) Supply measured protein stability index of SRFFSSSFYRLC in your reply.
(A) 0.485

(Q) Supply measured protein stability index of VIQKKKKNKITS in your reply.
(A) 0.408

(Q) Supply measured protein stability index of CVVLCLFCWCML in your reply.
(A) 0.425

(Q) Supply measured protein stability index of VVFLWRCRLLLG in your reply.
(A) 0.154

(Q) Supply measured protein stability index of CFVWFSVVLLFA in your reply.
(A) 0.202

(Q) Supply measured protein stability index of RYVFAFRRNYFC in your reply.
(A) 0.299

(Q) Supply measured protein stability index of KTRQLINKITQM in your reply.
(A) 0.288

(Q) Supply measured protein stability index of CSPSCNIVRLVS in your reply.
(A) 0.198

(Q) Supply measured protein stability index of RTKIKKKIMKNI in your reply.
(A) 0.651

(Q) Supply measured protein stability index of LGKSTLYMALNN in your reply.
(A) 0.571

(Q) Supply measured protein stability index of RGGWVVVLGCVG in your reply.
(A) 0.635

(Q) Supply measured protein stability index of WVVVKITAHTAT in your reply.
(A) 0.4

(Q) Supply measured protein stability index of GIKLNVVYILLG in your reply.
(A) 0.536

(Q) Supply measured protein stability index of MAMMQTILIIIH in your reply.
(A) 0.173

(Q) Supply measured protein stability index of RVCYQIAISLPI in your reply.
(A) 0.542

(Q) Supply measured protein stability index of PPSPPPPPPSPF in your reply.
(A) 0.719

(Q) Supply measured protein stability index of APEWGGGDEWWG in your reply.
(A) 0.798

(Q) Supply measured protein stability index of RFRFRRTCLYAT in your reply.
(A) 0.217

(Q) Supply measured protein stability index of CCGWSGCVSGVL in your reply.
(A) 0.74

(Q) Supply measured protein stability index of TCRLIQLTVTLH in your reply.
(A) 0.407

(Q) Supply measured protein stability index of QDQWINTSLELS in your reply.
(A) 0.711

(Q) Supply measured protein stability index of GFLFVLCAWGFF in your reply.
(A) 0.318

(Q) Supply measured protein stability index of PPPPPPPAPASP in your reply.
(A) 0.629

(Q) Supply measured protein stability index of LFRFSRLFLFVL in your reply.
(A) 0.201

(Q) Supply measured protein stability index of IVTSFVSPVYIC in your reply.
(A) 0.0794

(Q) Supply measured protein stability index of FIFCLSCGVWGG in your reply.
(A) 0.558

(Q) Supply measured protein stability index of FVVVCWFWGGGF in your reply.
(A) 0.429

(Q) Supply measured protein stability index of YLFDQYDWYKSM in your reply.
(A) 0.348

(Q) Supply measured protein stability index of KRSPPPATPSSG in your reply.
(A) 0.704

(Q) Supply measured protein stability index of PSRRLRHFATSP in your reply.
(A) 0.641

(Q) Supply measured protein stability index of RAEASFFLPKVG in your reply.
(A) 0.64

(Q) Supply measured protein stability index of RLDAPGLSRTEN in your reply.
(A) 0.671

(Q) Supply measured protein stability index of VWSVSVTIVGRR in your reply.
(A) 0.507

(Q) Supply measured protein stability index of NYVFRIIIVLDA in your reply.
(A) 0.349

(Q) Supply measured protein stability index of PRHERPPRDNGH in your reply.
(A) 0.702

(Q) Supply measured protein stability index of PAVRRLTGLMLM in your reply.
(A) 0.566

(Q) Supply measured protein stability index of DVYIVLFIIKHG in your reply.
(A) 0.3

(Q) Supply measured protein stability index of VQLLTRLKTPHP in your reply.
(A) 0.716

(Q) Supply measured protein stability index of DRQMRCVHIHYL in your reply.
(A) 0.532

(Q) Supply measured protein stability index of YCCDYFMFVLVV in your reply.
(A) 0.248

(Q) Supply measured protein stability index of LERLHSVLLLTS in your reply.
(A) 0.324

(Q) Supply measured protein stability index of WHFPCPPLPCPV in your reply.
(A) 0.471

(Q) Supply measured protein stability index of VFRECSFFLVCC in your reply.
(A) 0.315

(Q) Supply measured protein stability index of VLYCRSCFLRVS in your reply.
(A) 0.362

(Q) Supply measured protein stability index of YPSASLLPLFSC in your reply.
(A) 0.184

(Q) Supply measured protein stability index of GRVYLLGLYMSF in your reply.
(A) 0.481

(Q) Supply measured protein stability index of YPGMFLQLVWWI in your reply.
(A) 0.126

(Q) Supply measured protein stability index of MDLVSEYKIKVN in your reply.
(A) 0.473

(Q) Supply measured protein stability index of RAQQRVKERYIE in your reply.
(A) 0.69

(Q) Supply measured protein stability index of LLCSPPPLTVPA in your reply.
(A) 0.44

(Q) Supply measured protein stability index of LCLLHCSICISF in your reply.
(A) 0.414

(Q) Supply measured protein stability index of YRWERIYIGLRL in your reply.
(A) 0.36

(Q) Supply measured protein stability index of FPLPPPGSPPPL in your reply.
(A) 0.707

(Q) Supply measured protein stability index of YAFLWCVFYLSF in your reply.
(A) 0.305

(Q) Supply measured protein stability index of LTIYPLTYCFVS in your reply.
(A) 0.568

(Q) Supply measured protein stability index of RLPVMFWFVCSF in your reply.
(A) 0.638

(Q) Supply measured protein stability index of APPRLPLLSCSQ in your reply.
(A) 0.699

###

Assign protein stability index to each entry below.
- Test system: Saccharomyces cerevisiae
- Method summary: protein stability index of tFT-peptide fusion (C-terminal peptide) (PSI (0-1 scale)); higher = more stable (slower turnover)
- Test settings: genetic background: wild type; temperature: 30 C
// return just the number, without any unit appended

(Q) Supply measured protein stability index of AWGGSWWSLGGM in your reply.
(A) 0.672

(Q) Supply measured protein stability index of LSSPPHVRSSPF in your reply.
(A) 0.695

(Q) Supply measured protein stability index of PSPSPLPASFRL in your reply.
(A) 0.683

(Q) Supply measured protein stability index of VMSGPSGARRIW in your reply.
(A) 0.701

(Q) Supply measured protein stability index of AWMSRTRSKNLR in your reply.
(A) 0.717

(Q) Supply measured protein stability index of AETESASRCLHW in your reply.
(A) 0.776

(Q) Supply measured protein stability index of LSFFYLLSSYFL in your reply.
(A) 0.62

(Q) Supply measured protein stability index of RTFVSLLTSSSH in your reply.
(A) 0.83

All values here come from the supplement of paper PMC10724198.
